- assay-text: in vitro
- assay-setup: human, hela cells, % viability
Measured viability at 28.5 h, 10 µM of individual entries
result-type: viability at 28.5 h, 10 µM (%)

compound | result-type | observed
Cc1ccc(C(=O)O)cc1NS(=O)(=O)c1ccc2c(c1)OCCO2 | viability at 28.5 h, 10 µM | 90.7
O=C(c1ccncc1)N1C2CCC1CC(O)(c1ccc(F)cc1)C2 (stereo not drawn) | viability at 28.5 h, 10 µM | 95.6
O=C(N/N=C/c1c[nH]c2ccccc12)c1cc(-c2ccc3ccccc3c2)[nH]n1 | viability at 28.5 h, 10 µM | 54.8
Cc1cc(C)c(NC(=O)CSCc2cc(O)[nH]n2)c(Cl)c1 | viability at 28.5 h, 10 µM | 93.8
CN(CC(=O)O/N=C(\N)c1ccc(I)cc1)S(=O)(=O)c1cc(Cl)ccc1Cl | viability at 28.5 h, 10 µM | 89.6
CCC(NC(=O)C(C)Cn1cccn1)c1ccc(F)cc1 (stereo not drawn) | viability at 28.5 h, 10 µM | 88.1
OC(Cn1c(Cc2ccccc2)nc2ccccc21)Cn1c2ccccc2c2ccccc21 (stereo not drawn) | viability at 28.5 h, 10 µM | 95.2
O=C(CC(C(=O)O)C1CCCO1)Nc1ccc(Cl)cc1Cl (stereo not drawn) | viability at 28.5 h, 10 µM | 86.2
Cc1noc(C)c1S(=O)(=O)NCCc1c[nH]c2ccccc12 | viability at 28.5 h, 10 µM | 101
N=C1S/C(=C/c2ccc(-c3ccccc3C(=O)O)o2)C(=O)N1c1nccs1 | viability at 28.5 h, 10 µM | 93.9
O=C(Nc1cccc(CCc2ccccn2)c1)c1ccc([N+](=O)[O-])cc1 | viability at 28.5 h, 10 µM | 86.9
Cc1ccc(-c2c[nH]c([C@@H]3COCCN3Cc3csnn3)n2)cc1 | viability at 28.5 h, 10 µM | 91.4
O=C1Nc2c(cnn2-c2ccc(F)cc2)C2=NCCN12 | viability at 28.5 h, 10 µM | 104
Cc1[nH]c2ccccc2c1C(=O)CSc1nnc(N)s1 | viability at 28.5 h, 10 µM | 102
CCSc1c(C)cnc2c1c(=O)n(C)c(=O)n2C | viability at 28.5 h, 10 µM | 99.8
COc1ccccc1N(CC(=O)Nc1c(C)cccc1C)S(=O)(=O)c1ccc(C)cc1 | viability at 28.5 h, 10 µM | 96.5
Cc1ccc(C(=O)N2CN(C(=O)CN(C)CCN(C)C)CC2(C)C)cc1 [CBK091460C] | viability at 28.5 h, 10 µM | 115
CN1CCC(Cc2nc(-c3cccc(OC(F)F)c3)n(CCO)n2)CC1 | viability at 28.5 h, 10 µM | 90.2
COc1ccccc1-c1ccnc(N[C@H]2CO[C@H]3[C@@H]2OC[C@@H]3NC(=O)C2CCCCC2)n1 | viability at 28.5 h, 10 µM | 94.8
CCc1nc2ccc(C(=O)Nc3ccc(C(N)=O)cc3)cn2c1N(CCN(C)C)CC1CC1 | viability at 28.5 h, 10 µM | 87.1
Cc1nnc(NC(=O)C2CCN(C(=O)c3cccc(F)c3)CC2)s1 | viability at 28.5 h, 10 µM | 93.2
Cc1ccccc1NC(=O)Cc1nnc(SCC(=O)c2ccccc2)n1C | viability at 28.5 h, 10 µM | 101
O=C(NC1CC1)[C@@H]1C=CCN1C(=O)Nc1ccccc1C(F)(F)F | viability at 28.5 h, 10 µM | 98.1
CC(=O)C1=C(O)C(=O)N(CCCC(=O)O)C1c1ccc(Br)cc1 (stereo not drawn) | viability at 28.5 h, 10 µM | 115
COc1cc(C(=O)N2CCC3(CC2)CC(=O)c2cc(-c4cccnc4)ccc2O3)cc(OC)c1C | viability at 28.5 h, 10 µM | 112
O=C(Cn1nc(-c2ccco2)ccc1=O)Nc1ccccn1 | viability at 28.5 h, 10 µM | 87.4
Cc1ccc([C@]2(O)CC[C@H]3CN(Cc4cccc(F)c4F)C[C@H]32)nc1 | viability at 28.5 h, 10 µM | 98.1
CCc1nn(CC(=O)N(CC)CC)c(=O)c2cc3oc(C)cc3n12 | viability at 28.5 h, 10 µM | 99.5
O=C(Nc1cccnc1)N1CCCCC1CO (stereo not drawn) | viability at 28.5 h, 10 µM | 96.9
CCN1CCC2CN(CCCC(c3ccc(F)cc3)c3ccc(F)cc3)CCN2C1=O (stereo not drawn) | viability at 28.5 h, 10 µM | 92.7
Cc1cc(NS(=O)(=O)c2cccc(Cl)c2C)n[nH]1 | viability at 28.5 h, 10 µM | 91.2
OC(Cn1nnc2ccccc21)Cn1c(-c2ccccc2)c(-c2ccccc2)c2ccc3ccccc3c21 (stereo not drawn) [CBK264054G] | viability at 28.5 h, 10 µM | 92.9
O=C(NCCSCc1ccc(Cl)cc1Cl)c1ccc(Br)cc1 | viability at 28.5 h, 10 µM | 114
CC1(c2ccccc2)CC(=O)N(CCC(=O)O)C1=O (stereo not drawn) | viability at 28.5 h, 10 µM | 83.3
O=C1OCCN1C1CCN(S(=O)(=O)c2cccs2)CC1 | viability at 28.5 h, 10 µM | 99.3
CC1C(c2ccccc2)CCC(C(=O)O)C1C(=O)O (stereo not drawn) | viability at 28.5 h, 10 µM | 90.5
